Listed here: items and their measured normalized RNA/DNA level with ligand (log10).
B1: library; a variant is named by its letters at N, in order (parent)
chain: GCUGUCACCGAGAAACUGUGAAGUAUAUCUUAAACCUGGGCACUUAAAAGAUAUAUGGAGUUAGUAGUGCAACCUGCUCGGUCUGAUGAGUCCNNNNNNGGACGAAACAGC

- Variants of: B1
- ASSAY: normalized RNA/DNA level with ligand (relative to sTRSVctl = 100) (log10 (% of sTRSVctl)); HEK293T; ligand: cyclic di-GMP (c-di-GMP-II aptamer); ligand concentration (+) RNA-Seq: 1 mM; higher = less ribozyme self-cleavage, higher mRNA level
- CONDITIONS: reporter: mCherry (pCS4076), ligand present: yes
The answer should be written as a number, with no unit following it.

Here's what some known entries look like.
   mutation_code  assay_value
0         UCUCCA         1.85
1         GCAGAC         1.59
2         GAAUGA         1.65
3         AUUGGG         1.75

Find the recorded normalized RNA/DNA level with ligand (log10) belonging to UACCUA and report it.
1.82

Ok, now CAAGAU
1.79

Ok, now ACGGUA
1.57
